Measured CC50, listed per entry for reference.
Test: Cytotoxicity against human HepG2(2.2.15) cells by modified-MTT assay
Format: cell-based
quantity.name: CC50

molecule	observed
CC(=O)[C@]1(O)CC[C@@]2(O)[C@]1(C)[C@H](OC(=O)/C=C(\C)C(C)C)C[C@@H]1[C@@]3(C)CC[C@H](OC(=O)/C=C/c4ccc(O)c(O)c4)CC3=CC[C@]12O	8.49 µM
COc1ccc(/C=C/C(=O)O[C@H]2CC[C@@]3(C)C(=CC[C@]4(O)[C@@H]3C[C@@H](OC(=O)/C=C(\C)C(C)C)[C@@]3(C)[C@]4(O)CC[C@@]3(O)C(C)=O)C2)c(OC)c1OC	> 1550 µM
CC(=O)[C@]1(O)CC[C@@]2(O)[C@]1(C)[C@H](OC(=O)/C=C(\C)C(C)C)C[C@@H]1[C@@]3(C)CC[C@H](OC(=O)/C=C/c4ccccc4)CC3=CC[C@]12O	> 1420 µM

----------
Experiment: Cytotoxicity against human HepG2(2.2.15) cells by modified-MTT assay
Assay type: cell-based

molecule	CC50
CC(=O)[C@]1(O)CC[C@@]2(O)[C@]1(C)[C@H](OC(=O)/C=C(\C)C(C)C)C[C@@H]1[C@@]3(C)CC[C@H](OC(=O)/C=C/c4cc(C(F)(F)F)cc(C(F)(F)F)c4)CC3=CC[C@]12O	> 1280 µM
COc1cccc(/C=C/C(=O)O[C@H]2CC[C@@]3(C)C(=CC[C@]4(O)[C@@H]3C[C@@H](OC(=O)/C=C(\C)C(C)C)[C@@]3(C)[C@]4(O)CC[C@@]3(OC(=O)/C=C/c3cccc(OC)c3)C(C)=O)C2)c1	> 1370 µM
CC(=O)[C@]1(O)CC[C@@]2(O)[C@]1(C)[C@H](OC(=O)/C=C(\C)C(C)C)C[C@@H]1[C@@]3(C)CC[C@H](OC(=O)/C=C/c4ccc(Cl)c([N+](=O)[O-])c4)CC3=CC[C@]12O	450 µM
CC(=O)[C@]1(O)CC[C@@]2(O)[C@]1(C)[C@H](OC(=O)/C=C(\C)C(C)C)C[C@@H]1[C@@]3(C)CC[C@H](OC(=O)/C=C/c4ccccc4Cl)CC3=CC[C@]12O	> 1150 µM
COc1cc(/C=C/C(=O)O[C@H]2CC[C@@]3(C)C(=CC[C@]4(O)[C@@H]3C[C@@H](OC(=O)/C=C(\C)C(C)C)[C@@]3(C)[C@]4(O)CC[C@@]3(O)C(C)=O)C2)ccc1OC(C)=O	< 9.97 µM

----------
Assay: Selectivity index, ratio of CC50 for human HepG2(2.2.15) cells to IC50 for Hepatitis B virus infected in human HepG2(2.2.15) cells assessed as inhibition of viral e antigen secretion
Assay type: functional
Measured Ratio CC50/IC50, listed per entry for reference.

molecule	Ratio CC50/IC50
CC(=O)[C@]1(O)CC[C@@]2(O)[C@]1(C)[C@H](OC(=O)/C=C(\C)C(C)C)C[C@@H]1[C@@]3(C)CC[C@H](OC(=O)/C=C/c4ccc(Cl)c([N+](=O)[O-])c4)CC3=CC[C@]12O	5.7
CC(=O)[C@]1(O)CC[C@@]2(O)[C@]1(C)[C@H](OC(=O)/C=C(\C)C(C)C)C[C@@H]1[C@@]3(C)CC[C@H](OC(=O)/C=C/c4cccc(Cl)c4)CC3=CC[C@]12O	>3.7
COc1ccccc1/C=C/C(=O)O[C@H]1CC[C@@]2(C)C(=CC[C@]3(O)[C@@H]2C[C@@H](OC(=O)/C=C(\C)C(C)C)[C@@]2(C)[C@]3(O)CC[C@@]2(O)C(C)=O)C1	>3.1
CC(=O)[C@]1(O)CC[C@@]2(O)[C@]1(C)[C@H](OC(=O)/C=C(\C)C(C)C)C[C@@H]1[C@@]3(C)CC[C@H](OC(=O)/C=C/c4ccc(Cl)cc4Cl)CC3=CC[C@]12O	>1.6
CCOc1ccccc1/C=C/C(=O)O[C@H]1CC[C@@]2(C)C(=CC[C@]3(O)[C@@H]2C[C@@H](OC(=O)/C=C(\C)C(C)C)[C@@]2(C)[C@]3(O)CC[C@@]2(O)C(C)=O)C1	>4.3
